Molecular target: human full length PDE3A (Homo sapiens, UniProt Q14432)
Construct: Sf9 cells overexpressing human full length PDE3A; purchased SB Drug Discovery, UK; host or cells: Sf9 cells (cell extract)
Sequence (Q14432 whole entry): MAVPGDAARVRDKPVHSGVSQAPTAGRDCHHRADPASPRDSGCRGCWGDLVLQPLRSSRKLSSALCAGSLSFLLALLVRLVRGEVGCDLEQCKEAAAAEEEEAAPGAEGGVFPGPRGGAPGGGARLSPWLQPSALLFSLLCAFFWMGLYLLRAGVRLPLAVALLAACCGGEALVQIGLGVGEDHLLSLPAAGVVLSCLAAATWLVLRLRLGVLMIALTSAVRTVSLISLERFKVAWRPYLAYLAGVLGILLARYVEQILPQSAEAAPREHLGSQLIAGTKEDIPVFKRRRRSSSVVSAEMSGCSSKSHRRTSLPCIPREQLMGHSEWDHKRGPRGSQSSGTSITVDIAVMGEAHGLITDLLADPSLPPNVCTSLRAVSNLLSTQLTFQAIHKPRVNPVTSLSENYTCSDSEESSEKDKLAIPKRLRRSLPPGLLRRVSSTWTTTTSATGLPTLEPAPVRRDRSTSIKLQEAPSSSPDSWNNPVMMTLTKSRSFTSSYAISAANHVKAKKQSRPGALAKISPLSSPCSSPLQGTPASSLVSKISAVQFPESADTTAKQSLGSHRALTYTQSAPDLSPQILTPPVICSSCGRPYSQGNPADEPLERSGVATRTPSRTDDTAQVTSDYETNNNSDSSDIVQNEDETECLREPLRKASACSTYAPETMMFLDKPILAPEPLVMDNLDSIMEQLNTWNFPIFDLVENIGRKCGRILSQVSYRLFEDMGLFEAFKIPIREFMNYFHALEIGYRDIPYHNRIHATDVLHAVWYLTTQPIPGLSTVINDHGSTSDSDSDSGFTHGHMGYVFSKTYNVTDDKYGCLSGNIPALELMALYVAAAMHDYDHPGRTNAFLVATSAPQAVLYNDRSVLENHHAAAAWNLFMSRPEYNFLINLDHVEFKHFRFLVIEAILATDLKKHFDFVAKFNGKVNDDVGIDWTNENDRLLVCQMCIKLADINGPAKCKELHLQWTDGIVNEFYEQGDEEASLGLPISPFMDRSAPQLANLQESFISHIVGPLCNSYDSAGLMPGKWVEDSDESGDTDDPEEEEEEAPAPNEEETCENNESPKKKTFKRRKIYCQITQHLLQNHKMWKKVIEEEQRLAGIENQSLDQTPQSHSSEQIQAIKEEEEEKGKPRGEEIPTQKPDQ
Assay: PDE3A enzyme inhibition (3H-cAMP Scintillation Proximity Assay)
Assay type: biochemical
Settings: PDE3A cell extract from Sf9 cells, 60 min room temperature; read-out: Target IC50 PDE3A IC50
pIC50: −log10 of the molar value.
MEASURED_PARAMETER: pIC50

Below: 5 molecules and their reported pIC50.
1. Cc1cc(C2=NNC(=O)CC2)ccc1-c1ccc(N)cc1
7.33
2. CCc1ccccc1-c1ccc(C2=NNC(=O)CC2)cc1C
6.27
3. O=C1CCC(c2ccc(N3CC4CC(C3)C4(F)F)c(C(F)(F)F)c2)=NN1
7.09
4. COc1cccc(-c2ccc(C3=NNC(=O)CC3)cc2F)c1
7.00
5. Cc1cc(C2=NNC(=O)CC2)ccc1-c1cc(F)ccc1F
6.74

P. Cc1cc(C2=NNC(=O)CC2)ccc1-c1cccc(F)c1
Q. Cc1ccc(-c2ccc(C3=NNC(=O)CC3)cc2C)cn1
Quick one: lower pIC50, P or Q ? Kindly state the label of the option you pick.
P
(P: 6.85, Q: 7.42)

P. Nc1ccc(-c2ccc(C3=NNC(=O)CC3)cc2F)cc1
Q. COc1ccc(-c2ccc(C3=NNC(=O)CC3)cc2F)cc1
R. O=C1CCC(c2ccc(-c3ccncc3Cl)c(F)c2)=NN1
Rank items: key pIC50, increasing. Give your ranking as a list of the labels in the requested order.
Q, R, P
(Q: 6.55, R: 6.85, P: 7.05)

a. CCNc1ccc(C2=NNC(=O)CC2)cc1C(F)(F)F
b. O=C1CCC(c2ccc(-c3ccc4cc[nH]c4c3)c(F)c2)=NN1
Between a and b , whose measured pIC50 reads higher? Kindly state the label of the option you pick.
a
(a: 7.18, b: 6.96)

This collection of values is drawn from patent US11897867B2.
